Tested on: Candida albicans
Experiment: Antifungal activity against Candida albicans KCTC 7121 assessed as reduction in fungal growth incubated for 24 hrs by CLSI based broth dilution method
Format: functional
Details: read-out: MIC100
The reader will find reported MIC values listed item by item below.
MEASUREMENT NAME: MIC (µM)

SUBSTANCE	TGT	MEASUREMENT NAME	RECORDED MEASUREMENT
H-VPLAIKIYRAWKRR-NH2	Candida albicans	MIC	16
H-LAKKIYRKWKRW-NH2	Candida albicans	MIC	8
H-LAIKIYRAWKRR-NH2	Candida albicans	MIC	16
H-LAKKIYRAWKRW-NH2	Candida albicans	MIC	8
H-LWKKIYRKWKRW-NH2	Candida albicans	MIC	4
H-QLVPLAIKIYRAWKRR-NH2	Candida albicans	MIC	16
H-LAKKIYRAWKRR-NH2	Candida albicans	MIC	8
H-FWQLVPLAIKIYRAWKRR-NH2	Candida albicans	MIC	16
H-KRFWQLVPLAIKIYRAWKRR-OH	Candida albicans	MIC	16
H-LIKKIYRKWKRW-NH2	Candida albicans	MIC	4

* * *

Tested on: Erythrocyte
Experiment: Hemolytic activity in sheep RBC assessed as reduction in hemoglobin at 256 uM incubated for 1 hr
Assay type: ADME, cell-based, Ovis aries

SUBSTANCE	Activity
H-LWKKIYRKWKRW-NH2	Non-Toxic
H-LAKKIYRKWKRW-NH2	Non-Toxic
H-FWQLVPLAIKIYRAWKRR-NH2	Non-Toxic
H-LAIKIYRAWKRR-NH2	Non-Toxic
H-VPLAIKIYRAWKRR-NH2	Non-Toxic
H-KRFWQLVPLAIKIYRAWKRR-OH	Non-Toxic
H-LAKKIYRAWKRW-NH2	Non-Toxic
H-QLVPLAIKIYRAWKRR-NH2	Non-Toxic
H-LIKKIYRKWKRW-NH2	Non-Toxic
H-LAKKIYRAWKRR-NH2	Non-Toxic

* * *

Experiment: Retention time of the compound by RP-HPLC method
Type: physicochemical

SUBSTANCE	READING UNIT	Retention_time
H-VPLAIKIYRAWKRR-NH2	min	21.7
H-LWKKIYRKWKRW-NH2	min	17.3
H-FWQLVPLAIKIYRAWKRR-NH2	min	29
H-KRFWQLVPLAIKIYRAWKRR-OH	min	26.8
H-LAKKIYRAWKRR-NH2	min	14.1
H-QLVPLAIKIYRAWKRR-NH2	min	24.1
H-LAKKIYRAWKRW-NH2	min	17.1
H-LAKKIYRKWKRW-NH2	min	15.1
H-LAIKIYRAWKRR-NH2	min	16.4
H-LIKKIYRKWKRW-NH2	min	16.2

* * *

Tested on: Bacteria
Experiment: Antibacterial activity against Gram positive bacteria assessed as reduction in bacterial growth incubated for 24 hrs by CLSI based broth dilution method
Assay type: functional
Conditions: read-out: MIC100
MEASUREMENT NAME: MIC (µM)

SUBSTANCE	RECORDED MEASUREMENT
H-LAKKIYRAWKRR-NH2	14.2
H-VPLAIKIYRAWKRR-NH2	20
H-LWKKIYRKWKRW-NH2	6.8
H-FWQLVPLAIKIYRAWKRR-NH2	20.5
H-LAIKIYRAWKRR-NH2	21.1
H-QLVPLAIKIYRAWKRR-NH2	21.7
H-LAKKIYRAWKRW-NH2	13.7
H-LAKKIYRKWKRW-NH2	9.7
H-LIKKIYRKWKRW-NH2	7.1
H-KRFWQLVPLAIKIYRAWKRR-OH	11.4

* * *

The reader will find reported HC10 values listed item by item below.
Tested on: Erythrocyte
Assay: Hemolytic activity in sheep RBC assessed as reduction in hemoglobin incubated for 1 hr
Type: ADME, cell-based, Ovis aries
MEASUREMENT NAME: HC10

SUBSTANCE	MEASUREMENT NAME	RECORDED MEASUREMENT
H-LIKKIYRKWKRW-NH2	HC10	> 256 µM
H-LAKKIYRAWKRW-NH2	HC10	> 256 µM
H-LAKKIYRKWKRW-NH2	HC10	> 256 µM
H-FWQLVPLAIKIYRAWKRR-NH2	HC10	1.3 µM
H-VPLAIKIYRAWKRR-NH2	HC10	> 256 µM
H-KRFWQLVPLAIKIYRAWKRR-OH	HC10	5.1 µM
H-LAIKIYRAWKRR-NH2	HC10	> 256 µM
H-QLVPLAIKIYRAWKRR-NH2	HC10	180 µM
H-LAKKIYRAWKRR-NH2	HC10	> 256 µM
H-LWKKIYRKWKRW-NH2	HC10	> 256 µM

* * *

Experiment: Cytotoxicity against mouse NIH/3T3 cells assessed as reduction in cell viability at 10 uM incubated for 24 hrs by MTT assay
Assay type: cell-based, NIH3T3
Conditions: read-out: INH

SUBSTANCE	READING UNIT	cytotoxicity at 24 h, 10 µM
H-FWQLVPLAIKIYRAWKRR-NH2	%	40
H-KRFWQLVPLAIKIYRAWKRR-OH	%	40

* * *

The reader will find reported selectivity ratio values listed item by item below.
Experiment: Therapeutic index, ratio of HC10 for sheep RBC to geometric mean MIC for gram negative bacteria
Type: toxicity
Conditions: sheep red blood cells, read-out: TI

SUBSTANCE	selectivity ratio
H-LAIKIYRAWKRR-NH2	33.7
H-LAKKIYRKWKRW-NH2	67.4
H-LAKKIYRAWKRW-NH2	36.6
H-LWKKIYRKWKRW-NH2	128
H-FWQLVPLAIKIYRAWKRR-NH2	0.1
H-LIKKIYRKWKRW-NH2	91.4
H-VPLAIKIYRAWKRR-NH2	26.7
H-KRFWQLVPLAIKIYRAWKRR-OH	0.4
H-LAKKIYRAWKRR-NH2	32
H-QLVPLAIKIYRAWKRR-NH2	7

* * *

Tested on: Staphylococcus aureus
Test: Antibacterial activity against methicillin-resistant Staphylococcus aureus CCARM 3090 assessed as reduction in bacterial growth incubated for 24 hrs by CLSI based broth dilution method
Format: functional
Conditions: read-out: MIC100
The reader will find reported MIC values listed item by item below.
MEASUREMENT NAME: MIC (µM)

SUBSTANCE	MEASUREMENT NAME	RECORDED MEASUREMENT
H-VPLAIKIYRAWKRR-NH2	MIC	32
H-LAKKIYRAWKRR-NH2	MIC	16
H-LWKKIYRKWKRW-NH2	MIC	8
H-FWQLVPLAIKIYRAWKRR-NH2	MIC	16
H-QLVPLAIKIYRAWKRR-NH2	MIC	16
H-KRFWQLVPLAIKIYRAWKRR-OH	MIC	16
H-LAKKIYRKWKRW-NH2	MIC	16
H-LIKKIYRKWKRW-NH2	MIC	8
H-LAKKIYRAWKRW-NH2	MIC	16
H-LAIKIYRAWKRR-NH2	MIC	32

* * *

Experiment: Therapeutic index, ratio of HC10 for sheep RBC to geometric mean MIC for yeast
Format: toxicity
Conditions: sheep red blood cells, read-out: TI

SUBSTANCE	selectivity ratio
H-VPLAIKIYRAWKRR-NH2	32
H-LAIKIYRAWKRR-NH2	42.7
H-LAKKIYRKWKRW-NH2	64
H-LIKKIYRKWKRW-NH2	853
H-LAKKIYRAWKRR-NH2	64
H-LWKKIYRKWKRW-NH2	853
H-LAKKIYRAWKRW-NH2	64
